Entries and their pIC50 values follow.
TARGET_OR_SYSTEM: Recombinant human H-PGDS (Homo sapiens, UniProt O60760)
Sequence (O60760 whole entry): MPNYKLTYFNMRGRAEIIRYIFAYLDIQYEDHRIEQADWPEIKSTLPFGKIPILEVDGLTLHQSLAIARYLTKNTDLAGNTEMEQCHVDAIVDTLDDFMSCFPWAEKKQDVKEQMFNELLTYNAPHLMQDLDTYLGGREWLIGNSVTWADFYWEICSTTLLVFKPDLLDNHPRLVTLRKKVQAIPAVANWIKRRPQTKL
METHOD_DESCRIPTION: H-PGDS inhibitory activity (prostaglandin D2 production from prostaglandin H2, measured by LC-MS/MS)
STUDY_CONDITIONS: recombinant human H-PGDS 1.0 nM expressed in E. coli; prostaglandin H2 25 μM; preincubated 15 minutes on ice, reacted on ice for 1 minute; concentration that inhibits prostaglandin D2 production by 50%
pIC50: −log10 of the molar value.
READOUT_LABEL: pIC50

INSERT INTO results (compound, readout_label, reported_result) VALUES
  ('O=C(NC1CCN(c2nccc(=O)[nH]2)CC1)c1ccc(-c2nccc3occc23)cc1', 'pIC50', 9.01),
  ('O=C(NC1CCC2(CC1)COC2)c1ccc(-c2nccc3occc23)cc1', 'pIC50', 8.77),
  ('CC(C)(O)[C@H]1CC[C@H](NC(=O)c2ccc(-c3nc(Cl)cc4occc34)cc2)CC1', 'pIC50', 8.74),
  ('Cc1cc(=O)[nH]c(N2CCC(NC(=O)c3ccc(-c4nccc5occc45)cc3)CC2)n1', 'pIC50', 8.92),
  ('O=C(NC1CCCCC1)c1ccc(-c2nccc3occc23)cc1', 'pIC50', 8.38),
  ('O=C(N[C@H]1CC[C@H](NCC(F)F)CC1)c1ccc(-c2nccc3occc23)c(F)c1', 'pIC50', 8.89),
  ('Cn1cc(N2CCC(NC(=O)c3ccc(-c4nccc5occc45)cc3)CC2)cn1', 'pIC50', 8.92),
  ('CC(O)c1cnc(-c2ccc(C(=O)N[C@H]3CC[C@H](C(C)(C)O)CC3)cc2)c2ccoc12 (stereo partly shown)', 'pIC50', 6.80),
  ('O=C(N[C@H]1CC[C@@H](OCC2(O)CC2)CC1)c1ccc(-c2nccc3occc23)cc1', 'pIC50', 8.85),
  ('O=C(NC1CCN(c2cnc(CO)cn2)CC1)c1ccc(-c2nccc3occc23)cc1', 'pIC50', 8.21),
  ('O=C(N[C@@H]1CN(c2ncc(CO)cn2)C[C@H]1O)c1ccc(-c2nccc3occc23)cc1', 'pIC50', 8.17),
  ('CCn1nccc1CNC(=O)c1ccc(-c2nccc3[nH]ccc23)cc1', 'pIC50', 9.20),
  ('CCC(O)[C@H]1CC[C@H](NC(=O)c2ccc(-c3nccc4occc34)cc2)CC1 (stereo partly shown)', 'pIC50', 8.82),
  ('O=C(N[C@H]1C[C@@H](O)C1)c1ccc(-c2nccc3occc23)cc1', 'pIC50', 8.28),
  ('Cc1cc(S(N)(=O)=O)ccc1NC(=O)c1ccc(-c2nccc3occc23)cc1', 'pIC50', 7.92),
  ('O=C(NC1CCN(c2ccncn2)CC1)c1ccc(-c2nccc3occc23)cc1', 'pIC50', 8.72),
  ('CC(C)(O)[C@H]1CC[C@H](NC(=O)c2ccc(-c3nccc4occc34)cc2F)CC1', 'pIC50', 7.89),
  ('Cn1ccnc1CNC(=O)c1ccc(-c2nccc3[nH]ccc23)cc1', 'pIC50', 8.80),
  ('CC(C)(O)c1cnc(N2CCC(NC(=O)c3ccc(-c4nccc5occc45)cc3)CC2)nc1', 'pIC50', 8.77),
  ('Cc1cc2occc2c(-c2ccc(C(=O)NC3CCN(c4nnnn4C)CC3)cc2)n1', 'pIC50', 8.77),
  ('Cn1ccc2c(-c3ccc(C(=O)N[C@H]4CC[C@H](C(C)(C)O)CC4)cc3)nccc21', 'pIC50', 8.13),
  ('Cc1c(CNC(=O)c2ccc(-c3nccc4[nH]ccc34)cc2)cnn1C', 'pIC50', 9.13),
  ('O=C(NC1CC2CCC(C1)C2O)c1ccc(-c2nccc3occc23)cc1 (stereo not shown)', 'pIC50', 8.70),
  ('O=C(NCCCCO)c1ccc(-c2nccc3occc23)cc1', 'pIC50', 7.77),
  ('Cc1ccc(N2CCC(NC(=O)c3ccc(-c4nccc5occc45)cc3)CC2)nc1', 'pIC50', 8.85),
  ('O=C(NCc1ccccc1CO)c1ccc(-c2nccc3occc23)cc1', 'pIC50', 8.05),
  ('N#Cc1ccc(CNC(=O)c2ccc(-c3nccc4occc34)cc2)cc1', 'pIC50', 8.20),
  ('Cn1ccc(CNC(=O)c2ccc(-c3nccc4[nH]ccc34)cc2)n1', 'pIC50', 8.89),
  ('O=C(N[C@H]1CCN(c2cnc(CO)cn2)C1)c1ccc(-c2nccc3occc23)cc1', 'pIC50', 8.64),
  ('Cn1nnc(N2CCC(NC(=O)c3ccc(-c4nccc5occc45)cc3)CC2)n1', 'pIC50', 8.80),
  ('Cc1cc2occc2c(-c2ccc(C(=O)N[C@H]3CC[C@H](NCC(F)F)CC3)cc2)n1', 'pIC50', 8.74),
  ('O=C(NC1CCN(c2ccnc(F)c2)CC1)c1ccc(-c2nccc3occc23)cc1', 'pIC50', 8.89),
  ('CC(C)O[C@H]1CC[C@H](NC(=O)c2ccc(-c3nccc4occc34)cc2)CC1', 'pIC50', 8.89),
  ('Cn1nccc1CNC(=O)c1ccc(-c2nccc3[nH]ccc23)cc1', 'pIC50', 9.07);

The reported numbers originate from patent US20230339937A1.
